# Assay target: GSK3b (GST-full length GSK3b) (Homo sapiens (Human), UniProt P49841)
# Sequence (P49841 whole entry): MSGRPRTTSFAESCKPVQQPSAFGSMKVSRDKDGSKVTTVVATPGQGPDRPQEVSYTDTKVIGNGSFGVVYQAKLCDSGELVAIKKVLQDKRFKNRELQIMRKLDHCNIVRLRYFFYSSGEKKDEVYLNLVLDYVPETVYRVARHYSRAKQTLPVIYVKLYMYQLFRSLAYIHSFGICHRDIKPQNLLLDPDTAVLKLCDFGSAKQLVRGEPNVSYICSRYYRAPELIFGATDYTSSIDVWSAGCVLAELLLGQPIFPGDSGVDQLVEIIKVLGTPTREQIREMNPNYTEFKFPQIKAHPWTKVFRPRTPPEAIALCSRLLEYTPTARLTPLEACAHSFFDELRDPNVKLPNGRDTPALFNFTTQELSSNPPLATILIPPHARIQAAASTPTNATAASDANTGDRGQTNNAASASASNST
# Assay method text: GSK3b TR-FRET kinase assay
# Format: biochemical
# Study conditions: GSK3-B (TR-FRET 1 mM ATP); GMean; IC50, 1 mM ATP; geometric mean
Assay readout: IC50

INSERT INTO measurements (compound, experimental_result) VALUES
  ('CC1(C)CC(=O)C2=C(C1)Nc1n[nH]cc1C21CCN(S(=O)(=O)c2cccc(C(F)F)c2)CC1 [Compound 947264]', '100 to 1000 nM'),
  ('CC1(C)CC(=O)C2=C(C1)Nc1n[nH]cc1[C@]21CCN(S(=O)(=O)c2ccccc2)C1 [Compound 943485]', '1000 to 5000 nM'),
  ('CC1(C)CC(=O)C2=C(C1)Nc1n[nH]cc1C21CCN(S(=O)(=O)c2ccccc2OC(F)F)CC1 [Compound 945668]', '100 to 1000 nM');

---

Listing of recorded pIC50 by entry.
# Assay target: GSK3α (GST-full length GSK3α) (Homo sapiens (Human))
# Sequence (P49840 whole entry): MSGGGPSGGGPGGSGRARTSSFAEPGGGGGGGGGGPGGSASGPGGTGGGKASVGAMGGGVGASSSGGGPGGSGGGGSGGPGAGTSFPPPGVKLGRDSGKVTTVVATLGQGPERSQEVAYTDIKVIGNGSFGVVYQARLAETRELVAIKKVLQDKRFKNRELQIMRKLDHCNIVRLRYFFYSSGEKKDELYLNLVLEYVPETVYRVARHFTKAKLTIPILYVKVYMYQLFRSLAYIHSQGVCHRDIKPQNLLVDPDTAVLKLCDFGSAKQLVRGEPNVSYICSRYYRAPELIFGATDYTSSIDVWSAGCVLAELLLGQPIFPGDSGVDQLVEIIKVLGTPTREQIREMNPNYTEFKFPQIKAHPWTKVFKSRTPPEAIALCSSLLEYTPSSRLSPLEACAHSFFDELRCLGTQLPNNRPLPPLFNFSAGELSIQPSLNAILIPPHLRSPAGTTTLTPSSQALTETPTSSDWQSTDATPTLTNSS
# Assay method text: GSK3α TR-FRET kinase assay
# Assay type: biochemical
# Study conditions: 1 nM GSK3α, 4 μM ATP, 30 minute preincubation; geometric mean; read-out: GSK3-A TR-FRET BIOCHEMICAL (TR-FRET); GMean; IC50
pIC50: −log10 of the molar value.
Assay readout: pIC50

INSERT INTO results (compound, assay_readout, experimental_result) VALUES
  ('CC[C@]1(c2ccccc2)C2=C(C[C@]3(CCOC3)CC2=O)Nc2n[nH]cc21 [Compound 816880]', 'pIC50', '< 5.30'),
  ('CCC1(c2cccc(-c3cn(C)nc3C)c2)C2=C(CC(C)(C)NC2=O)Nc2n[nH]c(C(F)(F)F)c21 (stereo not shown) [Compound 948314]', 'pIC50', '≥ 7.00'),
  ('CC[C@@]1(c2cccc(S(=O)(=O)C(C)C)c2)C2=C(CC(C)(C)NC2=O)Nc2n[nH]c(C(F)(F)F)c21 [Compound 948423]', 'pIC50', '≥ 7.00'),
  ('CCC1(c2cccc(Br)c2)C2=C(CC(C)CC2=O)Nc2n[nH]c(C(F)(F)F)c21 (stereo not shown) [Compound 826715]', 'pIC50', '≥ 7.00'),
  ('CCC1(c2cccc(C(F)F)c2)C2=C(CC(C)(C)NC2=O)Nc2n[nH]c(C(F)(F)F)c21 (stereo not shown) [Compound 948305]', 'pIC50', '≥ 7.00'),
  ('CCC1(c2cccc(-c3ccnc4c3CCC4)c2)C2=C(CC(C)(C)NC2=O)Nc2n[nH]c(C)c21 (stereo not shown) [Compound 947675]', 'pIC50', '≥ 7.00'),
  ('CC[C@]1(c2ccccc2)C2=C(C[C@H](c3ccccc3)CC2=O)Nc2n[nH]cc21 [Compound 791262]', 'pIC50', '< 5.30');

---

# Assay target: GSK3b (GST-full length GSK3b) (Homo sapiens (Human))
# Assay method text: GSK3b TR-FRET kinase assay
# Type: biochemical
# Study conditions: 1 nM GSK3b, 2 μM ATP, 30 minute preincubation, Table 16; read-out: GSK3-B TR-FRET BIOCHEMICAL (TR-FRET); IC50
pIC50: −log10 of the molar value.
Assay readout: pIC50

INSERT INTO results (compound, assay_readout, experimental_result) VALUES
  ('CC[C@@]1(c2cccc(C(F)(F)F)c2)C2=C(CCN(c3ccsc3)C2=O)Nc2n[nH]cc21', 'pIC50', '6.00 to 7.00'),
  ('CC(C)S(=O)(=O)N1CCC2(CC1)C1=C(CC(C)(C)CC1=O)Nc1n[nH]cc12', 'pIC50', '≥ 7.00'),
  ('CCC1(c2cccc(-c3cnn4c3CCCC4)c2)C2=C(CC(C)(C)CC2=O)Nc2n[nH]c(C)c21 (centres unmarked) [Compound 884002]', 'pIC50', '≥ 7.00'),
  ('CC[C@@]1(c2cc(-c3cnn(C)c3)ccc2F)C2=C(CC(C)(C)CC2=O)Nc2n[nH]cc21', 'pIC50', '6.00 to 7.00'),
  ('CC[C@]1(c2cccc(-c3ccncc3C)c2)C2=C(CC(C)(C)CC2=O)Nc2n[nH]cc21', 'pIC50', '≥ 7.00'),
  ('CC1(C)CC(=O)C2=C(C1)Nc1n[nH]cc1[C@@]21CCOC1', 'pIC50', '5.30 to 6.00'),
  ('CC[C@]1(C)C2=C(CC(C)(C)CC2=O)Nc2n[nH]cc21 [Compound 884019]', 'pIC50', '5.30 to 6.00'),
  ('CCC1(c2cccc(-c3cn(C)nc3C)c2)C2=C(CC(C)(C)CC2=O)Nc2n[nH]cc21 (centres unmarked)', 'pIC50', '≥ 7.00');
